method-description: Oral bioavailability in dog
Assay type: ADME, organism-based, Canis lupus familiaris
applied-conditions: in vivo
observed-property: bioavailability (%)

A = CN1CCN(C2CCN(C(=O)[C@H](CC(=O)N3CCC(N4CCc5ccccc5NC4=O)CC3)Cc3cc(Cl)c(N)c(C(F)(F)F)c3)CC2)CC1
B = Cc1cc(C[C@@H](OC(=O)N2CCC(N3CCc4ccccc4NC3=O)CC2)C(=O)N2CCC(N3CCOCC3)CC2)cc(C)c1O [BI-44370]
Query: A or B : whose bioavailability is greater? Pick one; state its label.
Reply: A
(A: 22%, B: 11%)

---

method-description: Inhibition of rat CGRP receptor
observed-property: pIC50
A value of pIC50 is the negative decimal logarithm of a concentration given in moles per litre.

Query: Given the compound NCCCC[C@H](NC(=O)[C@@H](Cc1cc(Br)c(O)c(Br)c1)NC(=O)N1CCC(N2Cc3ccccc3NC2=O)CC1)C(=O)N1CCN(c2ccncc2)CC1 [OLCEGEPANT] , what is its reported pIC50?
Reply: 8.19

---

target-or-test-system: Calcitonin-gene-related peptide receptor, CALCRL/RAMP1 (Homo sapiens, UniProt O60894+Q16602)
Sequence (O60894 whole entry): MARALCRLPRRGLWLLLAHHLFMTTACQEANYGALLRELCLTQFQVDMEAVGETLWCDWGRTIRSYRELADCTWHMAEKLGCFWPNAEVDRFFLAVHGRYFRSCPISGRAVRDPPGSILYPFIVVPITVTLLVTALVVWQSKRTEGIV
Sequence (Q16602 whole entry): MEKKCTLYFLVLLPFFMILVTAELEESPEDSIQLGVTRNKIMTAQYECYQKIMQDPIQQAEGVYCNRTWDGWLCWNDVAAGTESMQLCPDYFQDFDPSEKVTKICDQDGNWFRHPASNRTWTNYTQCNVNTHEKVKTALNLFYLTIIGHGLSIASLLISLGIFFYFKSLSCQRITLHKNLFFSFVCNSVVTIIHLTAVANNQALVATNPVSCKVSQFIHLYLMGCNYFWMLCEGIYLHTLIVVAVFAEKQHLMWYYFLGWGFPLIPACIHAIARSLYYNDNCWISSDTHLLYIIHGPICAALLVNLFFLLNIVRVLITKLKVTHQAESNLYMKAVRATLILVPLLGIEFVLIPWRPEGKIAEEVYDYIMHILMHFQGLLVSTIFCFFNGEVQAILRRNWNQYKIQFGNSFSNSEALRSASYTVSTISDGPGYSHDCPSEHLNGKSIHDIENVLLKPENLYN
method-description: Inhibition of human CLR/RAMP1 by cAMP assay
Format: functional, protein-complex assay
observed-property: IC50 (nM)

A = CC(C)c1ccc(-c2ccc(Oc3cc(C(=O)N[C@@H]4CCN(C5CCOCC5)C[C@@H]4F)ccc3CN3C[C@@H](C)CC3=O)cc2)nn1
B = COC(C)(C)c1cc(-c2cc(N3CCC(N4CC(=O)Nc5ccccc5C4)CC3)ncc2N(C)c2cc(C)nc(C)c2)ccn1
Query: A or B : whose IC50 is greater? Pick one; state its label.
Reply: B
